experiment: soluble on expression in E. coli; label from the status in PepcDB or PDB records
RECORDED ENDPOINT: soluble on expression in E. coli

[[record]]
input_sequence = "MGSDKIHHHHHHMRRLNRKNNEALKKLNDRQRKVLYCIVREYIENKKPVSSQRVLEVSNIEFSSATIRNDMKKLEYLGYIYQPHTSAGRIPTDKGLRFYYEEMLKISKETSEADLAVETFKSMPLADPEKVLFLAGNLLARLTEGYVLIERPNTRDLKILRVMLIPVSEDYLIFSILTEFGVSKVTPIKTQERLNWEEIERQLNFLLRGRTVGEVLMGKIESLKGSGFLRLIESLIGETVERYLDAGLENLLKDETLTLEDIRNLLEEVKDQKFLESLVGEGITVRIGREIGRKKLEKFAVFSGKYFKGESPIGSVYLFTSKVTKYDRNHRVFEYILNRLSEYFTSTSRR"
result = "not soluble"

[[record]]
input_sequence = "MGHHHHHHSHMANSAGSMANSAGSMKEGKHFVLVHGACHGGWSWYKLKPLLEAAGHKVTALDLAASGTDLRKIEELRTLYDYTLPLMELMESLSADEKVILVGHSLGGMNLGLAMEKYPQKIYAAVFLAAFMPDSVHNSSFVLEQYNERTPAENWLDTQFLPYGSPEEPLTSMFFGPKFLAHKLYQLCSPEDLALASSLVRPSSLFMEDLSKAKYFTDERFGSVKRVYIVCTEDKGIPEEFQRWQIDNIGVTEAIEIKGADHMAMLCEPQKLCASLLEIAHKYN"
result = "soluble"

[[record]]
input_sequence = "MSRIHTLTMPKWGLSMTEGRVDAWLKEEGAHIEKGDEVLDVETDKISSSVEAPFSGVLRRKVAREDETLAVGALLGVVVEGEASDEEIDALVQRFQAEFVPADEDAGDSGPAPRKVELDGRLLRYFDRGEGDPALLLIHGFGGDLNNWLFNHEALAAERRVIALDLPGHGESGKALVRGDLDELSGSVLALLDHLDLEQVHLAGHSMGGAVALNCARLAPQRVLSLSLIGSAGLGEEINGDYLRGFVEAANRNALKPQLVQLFSDPALVTRQMLEDMLRYKRLEGVDAALRQLLDNLFADGRQRNDLRAVANEGRQPVLAIWGSDDAIIPARHAEGLPAQVEIIPGQAHMVQMEAAEQVNRLLLDFLRQH"
result = "not soluble"

[[record]]
input_sequence = "MGSDKIHHHHHHMRIFFLDQSGKPGGAELCLIDIAKPYSHSALVGLFADGPFKDLLEQNHIPVEILATQTIQVSKESSLAQGLKSLGQLAPLITKVIKKAREYDLIYANTQKALVVGALASFFSRRPLVYHLHDILSTEHFSQTNLRIAINLANRCASLVIANSQASKTAFIQAGGRSDIVEVVYNGFDLKIYQTDEPGINQLQQKLGLQGKFVVGHFSRLAPWKGQHILIDALAKCPPEVTVILVGDALFGEQDYAQKLHKQVTDLGLENRVKFLGFRSDIPQLMAACDLVAHTSTSPEPFGRVIVEAMLCGKPVVAAKAGGVMELVEHGLNGFLVTPGEPQELAQVIITCLQETEITATIANNARTTASRRFDVATINQQIAQLLSHRF"
result = "not soluble"


The recorded soluble on expression in E. coli for entry MDIKACYQNAKALLEGHFLLSSGFHSNYYLQSAKVLEDPKLAEQLALELAKQIQEAHLNIECVCSPAIGGILAGYELARALGVRFIFTERVDNTMALRRGFEVKKNEKILVCEDIITTGKSAMECAKVLEEKGAQIVAFGALANRGICKRAHSHLKAQEGACLPSHLPLFALEDFVFDMHKPSSCPLCATSVAIKPGSRGN equals not soluble

The recorded soluble on expression in E. coli for entry MGSDKIHHHHHHMRIYDPFRKKWIEEEIETPFPSKGLVATFPFVDLHVHVRLNGGEDYSSLEEASLVGGFFKVVVQPNTKPLIDSKEVLERHLDLSKNRAVEFLFAVSPFGSIEAEGERVVGFSTDGIEYDYPTLVETMKKKKKALWFDHSQMYEVDGIFYEGAPLPFQKRPRSNEAIAIARTVLTGLEYGFERFHIQHVTTKYSVEVISFLKNLAKVSCEVTPHHLFFCYEDIKNTNFKINPPLGSPEDRRALIEAVKKDVIDVLATDHAPHHEKPDDFLTAPYGSTSIEIAFPAYYTALGDLELVVKKLTKKPLEVLGVEARLTEDTLVFIDPEAEFIVDAKKFKSKGKNSMFDGVRLKGKVVALKLKGRWVMIDGEVIADQKEND equals not soluble

The recorded soluble on expression in E. coli for entry MSRLATLTWTSYRRGYTEIVTSAGLEVVFEPGDEWNSHDREYQQARLEVEGRGESGDGTVRTRTQALLRWQFKIKDGTVKRLPEADFTREVLVAVRLAIKDYRSQSSELRQKYFGPGFAMGG equals not soluble

The recorded soluble on expression in E. coli for entry MGSDKIHHHHHHVSSSLKDIQNKNQELDTKKQILSALNIRDVKDADAEYNKYVKGDMLMNVDGTLTENTDGFSISYEKEAKENNRLHVFVCEVDGETKYVVPVYGAGLWGAIWGYVALNADKDTVYGVYFSHASETPGLGAEIAGAAFQNEFSGKKVLKDGQVALAVEKNGKVTDPAYQVDGISGGTITSKGVDAMIKACLSQYDKFLTNN equals not soluble

The recorded soluble on expression in E. coli for entry MKLKSFGVFGNPIKHSKSPLIHNACFLTFQKELRFLGHYHPILLPLESHIKSEFLHLGLSGANVTLPFKERAFQVCDKIKGIALECGAVNTLVLENDELVGYNTDALGFYLSLKQKNYQNALILGAGGSAKALACELKKQGLQVSVLNRSSRGLDFFQRLGCDCFMEPPKSAFDLIINATSASLHNELPLNKEVLKGYFKEGKLAYDLAYGFLTPFLSLAKELKTPFQDGKDMLIYQAALSFEKFSASQIPYSKAFEVMRSVFLEHHHHHH equals soluble

The recorded soluble on expression in E. coli for entry MEIKEITIIGGYDKNGNPEPVREVTIKRGEIVGVVGPTGSGKSNLISDIEQLAQGDTISKRRILVNGEVPPIEMRRDPKKRRIAQLSQNMNFLADMTVEEFILMHAKSRGVYRENIVDEVIELANRLTGEPIKKDYNLTILSGGQSRSLMVADVAVISDSPIVLIDEIENAGIKKHEALELLAGYGKIVLVITHDPVLALMTDRRIVMRNGGMQKIIETTEEEKEISRKINEVDNWLLSLREKIRFGERLTHEDISLMVKG equals soluble

---

test: soluble on expression in E. coli; label from the status in PepcDB or PDB records
RECORDED ENDPOINT: soluble on expression in E. coli

[[record]]
input_sequence = "MGSDKIHHHHHHVKKLLNTLFINQSDSYLALDGGNVLVKADGQVLGRVPLHNLEGIVAFGYTGASPALMGHCAENGIALTFMTKNGRFLARVIGESRGNVVLRKTQYRRSDDEVASARLAKNFILGKLYNQKWMLERMTRDYPLRLDVERFKTTSQDMTETMREIQVCENLERLRGLEGTIAVRYNRLFDSMILQQKEDFHFKGRTRRPPLDRVNAMLSFAYSLLARDVSAALEAVGLDAYVGFLHRERPGRASLALDVMEELRGIYADRFVLSLINKKVIQGKDFLQKENGAVIMTEEGRKTFLTAWQKKKQETIQHPYLKEKMMWGLVPYEQALLLARHLRDDLEAYPPFLYK"
recorded_endpoint = "soluble on expression in E. coli"
result = "not soluble"

[[record]]
input_sequence = "MSFTDNWSDEEFIRQMKELIGNEGDMHVTCNHSEGEQVTETHVTREKALWYRHNGDREGMLVCLNLSRVEVLNQRYFLGPCPF"
recorded_endpoint = "soluble on expression in E. coli"
result = "not soluble"

[[record]]
input_sequence = "MKGLCSSDTRQYLPGHQLWEAPVQIRRYSAVIHHATKCQWGVIPSRTINVSLHQTRRMRVAAVGIGGAGGRIVERLWQDNERRETTYLGAACAVDTDTEALDELDALPADRRYAFGLSETNGTGTNGDRTSGTAAIEDERLEVRRAIDELVTSDIDAVVLVAGLAGGTGSGATAHIADALREVYSIPVYCLSVLPAGRDDDAAANTMQALRALESTVDGQILFDNEAWLGSGQTVESASETLNETIVARLGALFAAGEATAPDAVGQSVVDASEIINTLSDAGFTTLGYASQDLQTGAGSGDGTVIDQLKNRFLGDNADDVDEIEAYNAVETTLRRAVRGKLTAQCELDSADRALAVFAGPPAWLIRDAVTDGRRWLTEELQSPEVRSGLEHHHHHH"
recorded_endpoint = "soluble on expression in E. coli"
result = "not soluble"


---

test: soluble on expression in E. coli; label from the status in PepcDB or PDB records
RECORDED ENDPOINT: soluble on expression in E. coli

[[record]]
input_sequence = "MDIEIENHPLEPFLPANARLLMLGSFPPQKKRWSMDFYYPNLNNDMWRIVGLLFFNNKDYFLNETRKAFCRERIISFLNDKGIALFDTASAIRRLQDNASDKFLEVVQPTDISRLLGQLPECKAIVTTGQKATDTLRAQFEVEEPKVGDFSEFVFDGRPVRLYRMPSSSRAYPLALDKKAAAYRTMYQDLQMLNIELEHHHHHH"
recorded_endpoint = "soluble on expression in E. coli"
result = "soluble"

[[record]]
input_sequence = "MTYRELVERQLAVRHADLELGLSRAREQEPFVIHVSDLLDKAGIEYAVRMDKDFQTTFHLEYPITNYDTFKRAVWQTLGAYYCVCNDGDGLEIASNRPDGYAVRIVFGDVPV"
recorded_endpoint = "soluble on expression in E. coli"
result = "not soluble"

[[record]]
input_sequence = "MNSAHRSSLKKRPGPQDDRRVSFASPVSSSQKTAAVTVAAQTKQPAKAKNLRTMHSTPKKSKPAHDVADIISLVSKQSDILDDVSEIEHKMIKQAKMTQDLTMELANSIERIANMALAESKLSDQMEKQSKKLISLEGKTKELVEKANNWSKTLENRVDARSHHSTCLNDVQAAIKIINNAKINNDGFSEDFSAHYDKLLDLVETLEPWADKL"
recorded_endpoint = "soluble on expression in E. coli"
result = "soluble"

[[record]]
input_sequence = "MKESLIEAKVMDYGKLKDIQKEILYYKLYVDALKKKGIKEKVDPPPTLPKSIVSSVLTGGIPRDGPLQIELVSNDVVKIKEYNTLVKIQSDSRLPLYAIVEYRDTDIRVYLAYRENPSIVGLDLGLRHLITIVAIKDTKPWKVRFFDEPKLMEKFANFLSENQGIIKLEEMKSNAKRIIYEAVSFIEDLEPKVVAMENLEYFETKTGKGLRALQNMLENEIRRRGIRYRKIDPYNTSRVCAKCGYKKGEILGSLFVCPACGYKADRDYNAAYNIALKCYYTCLEHHHHHH"
recorded_endpoint = "soluble on expression in E. coli"
result = "not soluble"


From: the DeepSol protein solubility set
